system: MV4:11 human cancer cell lines; experiment: Cellular viability / anti-proliferative assay, CellTiter-Glo, 5 day protocol; assay type: cell-based; settings: Homo sapiens, MV4-11, 120 h, MV4:11 cells; 5 day incubation; CellTiter-Glo; mean of at least two replicates; read-out: GI50 on cellular proliferation of MV4:11 human cancer cell lines
Reported GI50 values for a set of compounds

The following compounds have reported results that may help.
COMPOUND	GI50
COc1ccc2nccc(N3CCc4c(cc(Cn5ccnc5C)cc4-c4cn(C)nc4C(F)(F)F)C3=O)c2c1 [Example 4]	< 20 nM
CCCCNC(=O)c1cc(OC)cc2c(N3CCc4c(cc(Cn5ccnc5)cc4-c4cn(C)nc4C(F)(F)F)C3=O)ccnc12 [Example 48]	119 nM
CCc1cc(C(=O)NCCOC)c2nc(C)cc(N3CCc4c(cc(Cn5ccnc5)cc4-c4cn(C)nc4C(F)(F)F)C3=O)c2c1 [Example 190]	< 20 nM

Fill in: GI50 of CCc1cc(Br)c2nccc(N3CCc4c(cc(Cn5ccnc5)cc4-c4cn(C)nc4C(F)(F)F)C3=O)c2c1 [Example 34] is ___
< 20 nM

###

Ki, WDR5 (Homo sapiens), per-entry values.

COMPOUND	ASSAYED_TARGET	Ki
COc1cc(OC)c2cncc(N3CCc4c(cc(Cn5ccnc5)cc4-c4cn(C)nc4C(F)(F)F)C3=O)c2c1 [Example 122]	WDR5 (Homo sapiens)	0.052 nM
CCc1cc(C(=O)NCC2CN(C(C)=O)C2)c2nccc(N3CCc4c(cc(Cn5ccnc5)cc4-c4cn(C)nc4C(F)(F)F)C3=O)c2c1 [Example 218]	WDR5 (Homo sapiens)	< 0.02 nM

We now examine a further compound.
Form field: Ki recorded for COc1cc(C2=CCOCC2)c2nc(C)cc(N3CCc4c(cc(Cn5ccnc5)cc4-c4cn(C)nc4C(F)(F)F)C3=O)c2c1 [Example 151] with WDR5 (Homo sapiens) (enter value)
< 0.02 nM

###

target: WDR5 (Homo sapiens); experiment: TR-FRET competition binding assay, displacement of 10mer-Thr-FAM MLL peptide probe from His-tagged WDR5; settings: WDR5-His tag (residues 24-334) 2 nM; 10mer-Thr-FAM 150 nM; 60 min, room temperature; read-out: Ki for Inhibition of WDR5 by TR-FRET assay
pKi: −log10 of the molar value.
PARAMETER: pKi

The following molecules have reported results that may help.
Cn1cc(-c2cc(Cn3ccnc3)cc3c2CCN([C@H]2CCOc4ncc(Cl)cc42)C3=O)c(C(F)(F)F)n1 > 10.70
COc1cc(COC2CCN(C)CC2)c2nccc(N3CCc4c(cc(Cn5ccnc5)cc4-c4cn(C)nc4C(F)(F)F)C3=O)c2c1 > 10.70
CCn1cc(-c2cc(Cn3ccnc3C)cc3c2CCN(c2cccc4ncc(OC)cc24)C3=O)c(C(F)(F)F)n1 > 10.70
COc1cc(C(=N)NO)c2nc(C)cc(N3CCc4c(cc(Cn5ccnc5)cc4-c4cn(C)nc4C(F)(F)F)C3=O)c2c1 > 10.70

Fill in: pKi of Cc1ccc2cncc(N3CCc4c(cc(Cn5ccnc5)cc4-c4cn(C)nc4C(F)(F)F)C3=O)c2c1 is ___
10.55

Fill in: pKi of CCc1nc2cccc(N3CCc4c(cc(Cn5ccnc5)cc4-c4cn(C)nc4C(F)(F)F)C3=O)c2cc1C is ___
10.24

###

system: MV4:11 human cancer cell lines; assay: Cellular viability / anti-proliferative assay, CellTiter-Glo, 5 day protocol; assay type: cell-based; conditions: Homo sapiens, MV4-11, 120 h, MV4:11 cells; 5 day incubation; CellTiter-Glo; mean of at least two replicates; read-out: GI50 on cellular proliferation of MV4:11 human cancer cell lines
PARAMETER: GI50

Form field: GI50 recorded for COc1cc(Br)c2nc(C)cc(N3CCc4c(cc(Cn5ccnc5)cc4-c4cn(C)nc4C(F)(F)F)C3=O)c2c1 with MV4:11 human cancer cell lines (enter value)
< 20 nM

###

test system: MV4:11 human cancer cell lines; assay: Cellular viability / anti-proliferative assay, CellTiter-Glo, 5 day protocol; type: cell-based; conditions: Homo sapiens, MV4-11, 120 h, MV4:11 cells; 5 day incubation; CellTiter-Glo; mean of at least two replicates; read-out: GI50 on cellular proliferation of MV4:11 human cancer cell lines
Reported GI50 values for a set of molecules

CCc1cc(C(=O)NC2CN(C(=O)C3CCOCC3)C2)c2nccc(N3CCc4c(cc(Cn5ccnc5)cc4-c4cn(C)nc4C(F)(F)F)C3=O)c2c1 < 20 nM
COc1cc(C(=O)NC2CN(C(=O)c3ccncc3)C2)c2nccc(N3CCc4c(cc(Cn5ccnc5)cc4-c4cn(C)nc4C(F)(F)F)C3=O)c2c1 29 nM

Fill in: GI50 of CCc1cc(N2CCN(C3COC3)CC2)c2nc(C)cc(N3CCc4c(cc(Cn5ccnc5)cc4-c4cn(C)nc4C(F)(F)F)C3=O)c2c1 is ___
< 20 nM

###

system: MV4:11 human cancer cell lines; assay: Cellular viability / anti-proliferative assay, CellTiter-Glo, 5 day protocol; assay type: cell-based; settings: Homo sapiens, MV4-11, 120 h, MV4:11 cells; 5 day incubation; CellTiter-Glo; mean of at least two replicates; read-out: GI50 on cellular proliferation of MV4:11 human cancer cell lines
PARAMETER: GI50

MOLECULE	GI50
COc1cc(CN2CCOCC2)c2nccc(N3CCc4c(cc(Cn5ccnc5)cc4-c4cn(C)nc4C(F)(F)F)C3=O)c2c1 [Example 133]	< 20 nM
COc1cc(C#N)c2nccc(N3CCc4c(cc(Cn5ccnc5)cc4-c4cn(C)nc4C(F)(F)F)C3=O)c2c1 [Example 205]	< 20 nM
COc1cc2c(N3CCc4c(cc(Cn5ccnc5)cc4-c4cn(C)nc4C(F)(F)F)C3=O)cc(C)cc2nc1C [Example 155]	< 20 nM
CCc1cc(C(=O)NC2CCOCC2)c2nccc(N3CCc4c(cc(Cn5ccnc5)cc4-c4cn(C)nc4C(F)(F)F)C3=O)c2c1 [Example 171]	< 20 nM
CCc1cc(C2CCN(C)CC2)c2nc(C)cc(N3CCc4c(cc(Cn5ccnc5)cc4-c4cn(C)nc4C(F)(F)F)C3=O)c2c1 [Example 148]	< 20 nM
COc1ccc2nc(C)cc(N3CCc4c(cc(Cn5ccnc5C)cc4-c4cn(C)nc4C(F)(F)F)C3=O)c2c1 [Example 8]	< 20 nM

We now examine a further molecule.
Fill in: GI50 of CCc1cc(C(=O)NC)c2nc(C)cc(N3CCc4c(cc(Cn5ccnc5)cc4-c4cn(C)nc4C(F)(F)F)C3=O)c2c1 [Example 178] is ___
< 20 nM

###

tested on: MV4:11 human cancer cell lines; assay: Cellular viability / anti-proliferative assay, CellTiter-Glo, 5 day protocol; type: cell-based; details: Homo sapiens, MV4-11, 120 h, MV4:11 cells; 5 day incubation; CellTiter-Glo; mean of at least two replicates; read-out: GI50 on cellular proliferation of MV4:11 human cancer cell lines
PARAMETER: GI50 (nM)

[A] Cc1nccn1Cc1cc2c(c(-c3cn(C)nc3C(F)(F)F)c1)CCN(C1CCCc3ccc(Br)cc31)C2=O (stereo not shown)
[B] CCn1cc(-c2cc(Cn3ccnc3C)cc3c2CCN(c2cccc4ncc(OC)cc24)C3=O)c(C(F)(F)F)n1
[C] COc1cc(C(=O)N2CCN(C)CC2)c2nccc(N3CCc4c(cc(Cn5ccnc5)cc4-c4cn(C)nc4C(F)(F)F)C3=O)c2c1
Consider the compounds listed above. Rank them by GI50 in ascending numerical order. Present the labels in the sequence the task asks for.
B, A, C
(B: 22 nM, A: 38 nM, C: 563 nM)

[P] CCc1cc(CCC(=O)N2CCOCC2)c2nc(C)cc(N3CCc4c(cc(Cn5ccnc5)cc4-c4cn(C)nc4C(F)(F)F)C3=O)c2c1
[Q] COc1cc(C(=O)N2CCCC2)c2nccc(N3CCc4c(cc(Cn5ccnc5)cc4-c4cn(C)nc4C(F)(F)F)C3=O)c2c1
[R] CCn1cc(-c2cc(Cn3ccnc3C)cc3c2CCN(c2cn(C)c4ccc(OC)cc24)C3=O)c(C(F)(F)F)n1
List items by GI50 in falling order. Present the labels in the sequence the task asks for.
Q, R, P
(Q: 353 nM, R: 107 nM, P: 47 nM)

[P] CNC(=O)c1cc(N2CCc3c(cc(Cn4ccnc4)cc3-c3cn(C)nc3C(F)(F)F)C2=O)c2cc(OC)ccc2n1
[Q] CCc1cc(OC(F)(F)F)c2nccc(N3CCc4c(cc(Cn5ccnc5)cc4-c4cn(C)nc4C(F)(F)F)C3=O)c2c1
Which of the two gives a bigger number for GI50: P or Q ? # answer = label of selected item
P

###

system: MV4:11 human cancer cell lines; experiment: Cellular viability / anti-proliferative assay, CellTiter-Glo, 5 day protocol; type: cell-based; conditions: Homo sapiens, MV4-11, 120 h, MV4:11 cells; 5 day incubation; CellTiter-Glo; mean of at least two replicates; read-out: GI50 on cellular proliferation of MV4:11 human cancer cell lines
PARAMETER: GI50

The following compounds have reported results that may help.
Cc1cc(OCCN(C)C)c2cncc(N3CCc4c(cc(Cn5ccnc5)cc4-c4cn(C)nc4C(F)(F)F)C3=O)c2c1 < 20 nM
Cc1nc2cccc(N3CCc4c(cc(Cn5ccnc5)cc4-c4cn(C)nc4C(F)(F)F)C3=O)c2o1 > 30000 nM

We now examine a further compound.
Fill in: GI50 of CCc1cc(COC2COC2)c2nccc(N3CCc4c(cc(Cn5ccnc5)cc4-c4cn(C)nc4C(F)(F)F)C3=O)c2c1 is ___
< 20 nM
